Items are presented alongside their recorded TGI.
system: UACC-62 melanoma; experiment: NCI tumour cell line growth inhibition, 48 h

Some solved cases for reference:
INSERT INTO assay_data (molecule, measurement_label, recorded_value) VALUES
  ('NC(=O)c1cc2ccccc2oc1=Nc1ccccc1', 'TGI', '> 100 µM'),
  ('NC1CC(=O)c2cc(Cl)sc21 (stereo not given)', 'TGI', '> 100 µM'),
  ('O=C1C/C(=C/c2ccc(/C=C3/CC(=O)N(c4cccc(Br)c4)C3=O)cc2)C(=O)N1c1cccc(Br)c1', 'TGI', '> 100 µM'),
  ('NS(=O)(=O)c1cc2c(cc1Cl)NC(C(=O)c1cc(=O)c3ccc(O)cc3o1)=NS2(=O)=O', 'TGI', '> 100 µM');

Then this molecule:
TGI lookup needed for `COC(=O)c1[nH]c(=S)[nH]c(=O)c1-c1ccc(Cl)cc1` , thanks.
> 50 µM
